target: human PDE10A (Homo sapiens (Human))
Sequence (Q9Y233 other isoform, or with tags, fused parts or gaps): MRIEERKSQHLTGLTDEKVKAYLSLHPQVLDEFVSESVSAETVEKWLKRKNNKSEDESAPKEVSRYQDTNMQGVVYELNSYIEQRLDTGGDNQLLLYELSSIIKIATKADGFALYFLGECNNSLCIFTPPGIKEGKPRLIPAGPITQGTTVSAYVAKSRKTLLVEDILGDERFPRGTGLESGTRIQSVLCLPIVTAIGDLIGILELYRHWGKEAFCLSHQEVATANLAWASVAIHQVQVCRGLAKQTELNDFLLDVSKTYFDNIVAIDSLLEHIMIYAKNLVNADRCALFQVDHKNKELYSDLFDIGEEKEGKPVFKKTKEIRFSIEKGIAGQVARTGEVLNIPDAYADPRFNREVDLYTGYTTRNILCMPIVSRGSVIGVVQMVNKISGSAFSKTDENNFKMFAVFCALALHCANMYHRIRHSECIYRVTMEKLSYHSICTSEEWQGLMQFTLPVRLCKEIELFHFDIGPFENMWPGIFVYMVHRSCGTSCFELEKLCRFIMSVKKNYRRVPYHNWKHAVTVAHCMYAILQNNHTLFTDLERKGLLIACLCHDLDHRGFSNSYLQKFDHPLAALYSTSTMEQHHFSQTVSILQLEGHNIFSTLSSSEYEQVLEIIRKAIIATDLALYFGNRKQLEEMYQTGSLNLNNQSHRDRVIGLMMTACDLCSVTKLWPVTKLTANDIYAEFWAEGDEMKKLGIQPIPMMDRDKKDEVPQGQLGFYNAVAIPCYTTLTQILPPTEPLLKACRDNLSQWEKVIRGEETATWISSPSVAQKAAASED
measurement type: pIC50
Kindly note that pIC50 refers to -log10 of the concentration in mol/L and answer with the value alone.

Cc1cnc(C)n2nc(CCc3nc(N4CCCC4=O)cn3-c3ccccc3)nc12: 8.49
Cc1ncc(C)n2nc(CCc3nc(-n4ccccc4=O)cn3C)nc12: 6.71
Cc1c(C(F)(F)F)nc2ccc(CCc3nc(N4CCCC4=O)cn3-c3ccccc3)nn12: 8.51

[in] Input Cc1ncc(C)n2nc(CCc3nc(-n4ccccc4=O)cn3CC3CC3)nc12 , output reported pIC50.
[out] 6.82

[in] Note down pIC50 recorded for Cc1ncc(C)n2nc(CCc3nc(N4CCCC4=O)cn3CC(F)(F)F)nc12
[out] 7.44
